// K. pneumoniae SI-117 producing VIM-1 MIC records

- compound: "NCCN1CCN(C(=O)NC(C(=O)N[C@H]2Cc3cccc(C(=O)O)c3OB2O)c2cc(F)c(O)cc2F)C(=O)C1=O (stereo partly drawn) [Example 93]"
  MIC: "32 to 64 µg/mL"
- compound: "CCN1CCN(C(=O)NC(C(=O)N[C@H]2Cc3ccc(SCCNCCN)c(C(=O)O)c3OB2O)c2csc(N)n2)C(=O)C1=O (stereo partly drawn) [Example 66]"
  MIC: "> 128 µg/mL"
- compound: "CCN1CCN(C(=O)NC(C(=O)N[C@H]2Cc3cccc(C(=O)O)c3OB2O)c2ccc(O)c(Cl)c2F)C(=O)C1=O (stereo partly drawn) [Example 185]"
  MIC: "32 to 64 µg/mL"
- compound: "CCN1CCN(C(=O)NC(C(=O)N[C@H]2Cc3ccc(F)c(C(=O)O)c3OB2O)c2c(F)cc(O)cc2F)C(=O)C1=O (stereo partly drawn) [Example 130]"
  MIC: "32 to 64 µg/mL"
- compound: "CCN1CCN(C(=O)N[C@H](C(=O)N[C@H]2Cc3ccc(F)c(C(=O)O)c3OB2O)c2c(F)cc(O)c(O)c2Cl)C(=O)C1=O (single isomer, unassigned) [Example 125]"
  MIC: "32 to 64 µg/mL"
- compound: "CCN1CCN(C(=O)N[C@H](C(=O)N[C@H]2Cc3cccc(C(=O)O)c3OB2O)c2ccc(C(=O)O)c(F)c2)C(=O)C1=O (single isomer, unassigned) [Example 147]"
  MIC: "> 128 µg/mL"
- compound: "CCN1CCN(C(=O)N[C@H](C(=O)N[C@H]2Cc3cccc(C(=O)O)c3OB2O)c2ccc(C(=O)O)c(Cl)c2)C(=O)C1=O (single isomer, unassigned) [Example 155]"
  MIC: "> 128 µg/mL"
- compound: "CCN1CCN(C(=O)NC(C(=O)N[C@H]2Cc3cccc(C(=O)O)c3OB2O)c2c(F)c(O)cc(O)c2F)C(=O)C1=O (stereo partly drawn) [Example 106]"
  MIC: "> 128 µg/mL"
- compound: "CS(=O)(=O)N1CCN(C(=O)N[C@H](C(=O)N[C@H]2Cc3cccc(C(=O)O)c3OB2O)c2c(F)cc(O)cc2F)C1=O (single isomer, unassigned) [Example 136]"
  MIC: "> 128 µg/mL"
- compound: "NCCN1CCN(C(=O)N[C@@H](C(=O)N[C@H]2Cc3cccc(C(=O)O)c3OB2O)c2c(F)cccc2Cl)C(=O)C1=O (single isomer, unassigned) [Example 205]"
  MIC: "> 128 µg/mL"
- compound: "NS(=O)(=O)Nc1cccc([C@H](NC(=O)N2CCN(CC(F)(F)F)C(=O)C2=O)C(=O)N[C@H]2Cc3cccc(C(=O)O)c3OB2O)c1 (single isomer, unassigned) [Example 216]"
  MIC: "> 128 µg/mL"
- compound: "O=C(Nc1ccccc1)NC(C(=O)N[C@H]1Cc2ccc(F)c(C(=O)O)c2OB1O)c1ncc(O)cc1F (stereo partly drawn) [Example 49]"
  MIC: "> 128 µg/mL"

###

Test system: E. coli D22
Assay: Broth microdilution MIC in CAMHB
Assay type: cell-based
Conditions: Escherichia coli; MHB; hyper-permeable E. coli D22; read-out: Minimum Inhibitory Concentration, E. coli D22
property_name: MIC

- compound: "C[C@H]1CN(CCF)C(=O)C(=O)N1C(=O)NC(C(=O)N[C@H]1Cc2cccc(C(=O)O)c2OB1O)c1c(F)cc(O)cc1F (stereo partly drawn)"
  target_system: "E. coli D22"
  result: "32 to 64 µg/mL"
- compound: "NCCCN1CCN(C(=O)N[C@@H](C(=O)N[C@H]2Cc3cccc(C(=O)O)c3OB2O)c2ccc(O)c(F)c2F)C(=O)C1=O (single isomer, unassigned)"
  target_system: "E. coli D22"
  result: "8 to 16 µg/mL"
- compound: "C[C@H]1CN(CCF)C(=O)C(=O)N1C(=O)N[C@@H](C(=O)N[C@H]1Cc2cccc(C(=O)O)c2OB1O)c1ccc(O)c(F)c1F"
  target_system: "E. coli D22"
  result: "32 to 64 µg/mL"
- compound: "NC1(CN2CCN(C(=O)N[C@@H](C(=O)N[C@H]3Cc4cccc(C(=O)O)c4OB3O)c3cc(F)c(O)c(F)c3F)C(=O)C2=O)CC1 (single isomer, unassigned)"
  target_system: "E. coli D22"
  result: "32 to 64 µg/mL"
- compound: "CCN1CCN(C(=O)N[C@@H](C(=O)N[C@H]2Cc3cccc(C(=O)O)c3OB2O)c2ccc(C(=O)O)c(Cl)c2F)C(=O)C1=O (single isomer, unassigned)"
  target_system: "E. coli D22"
  result: "> 128 µg/mL"
- compound: "CCN1C[C@H](C)N(C(=O)N[C@@H](C(=O)N[C@H]2Cc3cccc(C(=O)O)c3OB2O)c2ccc(O)c(F)c2F)C(=O)C1=O"
  target_system: "E. coli D22"
  result: "32 to 64 µg/mL"
